- EXPERIMENT SUMMARY: activity coefficient (dimensionless); of the first substance listed, at infinite dilution; xn = mol fraction of the nth substance listed
- ASSAY SETUP: 373.15 K; 101.33 kPa; Liquid; Chromatography; x1 = 0
EXPERIMENTAL ENDPOINT: activity coefficient
Respond numerically, and do not add a unit to the figure.

// below: answered compounds
[
  {
    "COMPOUND": "C#CCCCC [1-hexyne] + CCn1cc[n+](C)c1.CO[PH](=O)[O-]",
    "activity coefficient": 7.56
  },
  {
    "COMPOUND": "Cc1ccccc1 [toluene] + CCn1cc[n+](C)c1.CO[PH](=O)[O-]",
    "activity coefficient": 7.16
  },
  {
    "COMPOUND": "CCOCC [diethyl ether] + CCn1cc[n+](C)c1.CO[PH](=O)[O-]",
    "activity coefficient": 4.6
  }
]

Identify measured activity coefficient corresponding to C#CCCCCC [1-heptyne] + CCn1cc[n+](C)c1.CO[PH](=O)[O-]
12

Let me know recorded activity coefficient for CC(C)O [propan-2-ol] + CCn1cc[n+](C)c1.CO[PH](=O)[O-] , thanks.
0.314

Please report the measured activity coefficient for CCCCO [butan-1-ol] + CCn1cc[n+](C)c1.CO[PH](=O)[O-]
0.324

Using the record for c1ccccc1 [benzene] + CCn1cc[n+](C)c1.CO[PH](=O)[O-] , state its measured activity coefficient.
3.75

Please indicate activity coefficient recorded for CC#N [acetonitrile] + CCn1cc[n+](C)c1.CO[PH](=O)[O-]
1.25

Give activity coefficient for C=O [methanal] + CCn1cc[n+](C)c1.CO[PH](=O)[O-]
0.151

Identify activity coefficient associated with the compound CCCCCCCCCCCCCC [tetradecane] + CCn1cc[n+](C)c1.CO[PH](=O)[O-]
2270
